- measurement protocol: melting temperature; fluorescence melt of hairpins on a sequencing array, two-state fit, raised by 9.35 °C to match UV melts
- conditions: sodium 0.088 M
Here, each record is paired with measured Tm data.
measured parameter: Tm (°C)

{"chain": "GCTTTCGAAAGAAGAGC ((((((....))).)))", "measured parameter": "Tm", "numeric readout": 37.3}
{"chain": "GCTATAGAAATATAGC ((((((....))))))", "measured parameter": "Tm", "numeric readout": 42.8}
{"chain": "GATCAGTCCACTGATC ((((((....))))))", "measured parameter": "Tm", "numeric readout": 54.3}
{"chain": "GATCCTTCTAGGATC ((((((...))))))", "measured parameter": "Tm", "numeric readout": 57.1}
{"chain": "GATCCCCTCAGGGATC ((((((....))))))", "measured parameter": "Tm", "numeric readout": 66}
{"chain": "GTGCATTCGAAAGAACAC (((..(((....))))))", "measured parameter": "Tm", "numeric readout": 23.8}
{"chain": "GATCTGGTCCAGATC ((((((...))))))", "measured parameter": "Tm", "numeric readout": 50.8}
{"chain": "GAACGCCCGAAAGGGTTC (((..(((....))))))", "measured parameter": "Tm", "numeric readout": 30.3}
{"chain": "GATCCGACCGCGGATC ((((((....))))))", "measured parameter": "Tm", "numeric readout": 56.8}
{"chain": "GATCGTAGACACGATC ((((((....))))))", "measured parameter": "Tm", "numeric readout": 54.2}
{"chain": "GCGTCTGGAAACAGATGC ((.((((....)))).))", "measured parameter": "Tm", "numeric readout": 54.6}
{"chain": "GATCGGGTCACCGATC ((((((....))))))", "measured parameter": "Tm", "numeric readout": 67.4}
{"chain": "GCGAAGCGAAAGCTCAGC ((..(((....)))..))", "measured parameter": "Tm", "numeric readout": 41.1}
{"chain": "GGTGTAGGAAACTATGCC ((..(((....)))..))", "measured parameter": "Tm", "numeric readout": 35.7}
{"chain": "CGGGATCGGAAACGACCG (((..(((....))))))", "measured parameter": "Tm", "numeric readout": 40}
{"chain": "GGTAGCGAAAGCTGAACC ((((((....)))..)))", "measured parameter": "Tm", "numeric readout": 38.2}
{"chain": "GACAGCGCGAAAGCGGTC (((..(((....))))))", "measured parameter": "Tm", "numeric readout": 41.8}
{"chain": "GATCAATTATTGATC ((((((...))))))", "measured parameter": "Tm", "numeric readout": 43.8}
{"chain": "GATCGCTTTCGCGATC ((((((....))))))", "measured parameter": "Tm", "numeric readout": 67.4}
{"chain": "GCTGGCGGAAACGCTGGC ((..(((....)))..))", "measured parameter": "Tm", "numeric readout": 53.7}
{"chain": "GCACTGCGAAAGCCTTGC (((..((....))..)))", "measured parameter": "Tm", "numeric readout": 36.6}
{"chain": "GAGGCGGCGAAAGCCCTC (((..(((....))))))", "measured parameter": "Tm", "numeric readout": 43.1}
{"chain": "GGCATACCGAAAGGTGCC (((..(((....))))))", "measured parameter": "Tm", "numeric readout": 53.3}
{"chain": "GTAGGTGGAAACATCTGC (.((.((....)).)).)", "measured parameter": "Tm", "numeric readout": 30}
{"chain": "GTGCTCTCGAAAGAGCAC (((..(((....))))))", "measured parameter": "Tm", "numeric readout": 62.6}

----------
- measurement protocol: folding enthalpy; higher = less favourable; fluorescence melt of hairpins on a sequencing array, two-state fit
- conditions: sodium 0.088 M

{"chain": "GATCCGTTTGCGGATC ((((((....))))))", "output unit": "kcal/mol", "folding enthalpy": -37.7}
{"chain": "GAGGGCGAAAGCCTCTC ((((((....))).)))", "output unit": "kcal/mol", "folding enthalpy": -16.1}
{"chain": "GAGATGGGAAACCATTTC ((.((((....)))).))", "output unit": "kcal/mol", "folding enthalpy": -26.8}
{"chain": "GGCACCGAAAGGTTGGCC ((((((....)))..)))", "output unit": "kcal/mol", "folding enthalpy": -28.1}
{"chain": "GTCCACGAAAGTGATGAC ((((((....)))..)))", "output unit": "kcal/mol", "folding enthalpy": -14.8}
{"chain": "GATCTTCTTAAAGATC ((((((....))))))", "output unit": "kcal/mol", "folding enthalpy": -32.7}

----------
- measurement protocol: melting temperature; fluorescence melt of hairpins on a sequencing array, two-state fit, raised by 9.35 °C to match UV melts
- conditions: sodium 0.088 M
Label Fulfilled when Tm >= 40 °C; otherwise Not fulfilled.

{"chain": "GCATGGAAACATGC (((((....)))))", "category": "Fulfilled"}
{"chain": "GATCGGTTACCCGATC ((((((....))))))", "category": "Fulfilled"}
{"chain": "GTAGCCGAAAGGCTATAC ((((((....)))..)))", "category": "Fulfilled"}
{"chain": "GGTGGAGGAAACTTCACC ((((.((....)).))))", "category": "Fulfilled"}
{"chain": "GATTCTGGAAACAGAGTC ((.((((....)))).))", "category": "Not fulfilled"}
{"chain": "GAGACCGAAAGGTCGCTC ((((((....)))..)))", "category": "Fulfilled"}
{"chain": "GCTATATCGAAAGATAGC (((..(((....))))))", "category": "Not fulfilled"}
{"chain": "GCGGCAGGAAACTACCGC ((((.((....)).))))", "category": "Fulfilled"}
{"chain": "GCAGTCGGAAACGACTAC (.(((((....))))).)", "category": "Fulfilled"}
{"chain": "GTCGACCGAAAGGTAGAC (((.(((....))).)))", "category": "Fulfilled"}
{"chain": "GGCCTTCGAAAGAACGCC (((.(((....))).)))", "category": "Fulfilled"}
{"chain": "GTCGTGGGAAACTACGGC (.(((.(....).))).)", "category": "Fulfilled"}

----------
- measurement protocol: melting temperature; fluorescence melt of hairpins on a sequencing array, two-state fit, raised by 9.35 °C to match UV melts
- conditions: sodium 0.088 M

{"chain": "CGGTCGGAAACGACTCCG ((((((....)))..)))", "output unit": "°C", "Tm": 33.9}
{"chain": "GATCGCGAGGGCGATC ((((((....))))))", "output unit": "°C", "Tm": 68}
{"chain": "GCCGTTGCGAAAGCAGGC (((..(((....))))))", "output unit": "°C", "Tm": 62.3}
{"chain": "GGTCCCACGAAAGTGACC (((..(((....))))))", "output unit": "°C", "Tm": 36.8}
{"chain": "GGACCCGGAAACGGATCC (((.(((....))).)))", "output unit": "°C", "Tm": 49.8}
{"chain": "GATCCCTACCGGGATC ((((((....))))))", "output unit": "°C", "Tm": 61.9}
{"chain": "GGCACCGCGAAAGCGGCC (((..(((....))))))", "output unit": "°C", "Tm": 40}
{"chain": "GATCACGAAAGTGTTATC ((((((....)))..)))", "output unit": "°C", "Tm": 28.4}
{"chain": "GGCCTAGAAATAGGCC ((((((....))))))", "output unit": "°C", "Tm": 62.8}
{"chain": "GCACGGGGAAACCCGTAC (.(((((....))))).)", "output unit": "°C", "Tm": 41.7}
{"chain": "GGCGACGGAAACGCCACC ((.(.((....)).).))", "output unit": "°C", "Tm": 46}
{"chain": "GCCGCAGCGAAAGCTGGC (((..(((....))))))", "output unit": "°C", "Tm": 56.7}
{"chain": "GGAGGCGAAAGCCCATCC ((((((....)))..)))", "output unit": "°C", "Tm": 31.3}
{"chain": "CGGCCGGAAACGGACCG ((((((....))).)))", "output unit": "°C", "Tm": 54.6}
{"chain": "GTCGCATCGAAAGATGAC (((..(((....))))))", "output unit": "°C", "Tm": 28.9}
{"chain": "GTTTACCGAAAGGTAAC (((.(((....))))))", "output unit": "°C", "Tm": 44.2}
{"chain": "GATCCGAATGCGGATC ((((((....))))))", "output unit": "°C", "Tm": 54.1}
{"chain": "GCGGTTCCGAAAGGACGC (((..(((....))))))", "output unit": "°C", "Tm": 51.7}
{"chain": "GATCTTGACAAAGATC ((((((....))))))", "output unit": "°C", "Tm": 52.7}
{"chain": "GGTCCTCGAAAGAGCACC (((.(((....))).)))", "output unit": "°C", "Tm": 38.5}
{"chain": "GGCAACGGAAACGTCACC ((..(((....)))..))", "output unit": "°C", "Tm": 26}
{"chain": "GGATCTGGAAACGGATCC (((((.(....).)))))", "output unit": "°C", "Tm": 51.6}
{"chain": "GCTGACGAAAGTCCAAGC ((((((....)))..)))", "output unit": "°C", "Tm": 43.5}
{"chain": "ACGTAGAAATACGT (((((....)))))", "output unit": "°C", "Tm": 37.9}
{"chain": "GCGTGGCGAAAGCCTTGC ((..(((....)))..))", "output unit": "°C", "Tm": 48}
